Cited source: PubChem BioAssay AID1851

target: Cytochrome P450 2C19 (Homo sapiens) (UniProt P33261); assay: Cytochrome panel assay with activity outcomes; settings: recombinant CYP, pro-luciferin dealkylation, luminescence, p450-cyp2c19; series mostly up to 57.1 µM
Sequence (P33261 whole entry, looked up): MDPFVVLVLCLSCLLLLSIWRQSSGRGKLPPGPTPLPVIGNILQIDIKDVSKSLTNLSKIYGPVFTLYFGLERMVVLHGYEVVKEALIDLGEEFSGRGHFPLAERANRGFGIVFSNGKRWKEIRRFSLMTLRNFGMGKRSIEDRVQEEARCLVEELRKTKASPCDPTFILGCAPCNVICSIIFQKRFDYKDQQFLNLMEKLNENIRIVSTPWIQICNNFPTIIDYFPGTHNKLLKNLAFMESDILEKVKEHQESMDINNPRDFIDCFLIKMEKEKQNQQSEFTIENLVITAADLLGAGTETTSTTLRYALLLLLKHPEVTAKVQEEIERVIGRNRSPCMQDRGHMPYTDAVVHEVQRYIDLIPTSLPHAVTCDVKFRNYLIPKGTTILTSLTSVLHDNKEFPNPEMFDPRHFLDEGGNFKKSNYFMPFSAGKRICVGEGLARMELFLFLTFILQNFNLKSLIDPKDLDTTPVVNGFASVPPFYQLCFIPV
The whole screen tested about 16,000 compounds, of which about 5,800 (36%) were called active. Another 23% or so got no clear call; they are omitted. The call rests on the fitted dose curve; in most records, active means well fitted curve in the direction sought with a large enough effect; inconclusive means small, poorly fitted or top-dose-only effect, or effect the other way; inactive means no such curve, though single readings can be large or run the other way. The list shows a part of the results.
Select the matching outcome among active, inactive

compound	label.class
COc1ccc2[nH]cc(CCNc3ncncc3-c3ccc(N(C)C)cc3)c2c1	active
COC(=O)[C@@]1(Cc2ccc(OC)cc2)[C@H]2c3cc(C(=O)N4CCCC4)n(CCc4c[nH]c5cc(F)ccc45)c3C[C@H]2CN1C(=O)c1ccccc1	active

Recorded test call requested for O=C(CCCN1C(=O)c2cccc3cccc(c23)C1=O)N1CCc2ccccc2C1
active

Kindly provide the recorded test outcome for the following compound: CCCCn1nnnc1SCC(=O)N1CCCC1
active

Name the outcome recorded for CN(C)S(=O)(=O)c1ccc(NC(=O)COC(=O)c2ccccn2)cc1 in the assay.
inactive

For CCCCn1nnnc1SCC(=O)c1cc(Cl)ccc1OC , which call appears in the assay record?
active

Recorded test outcome, item N#CC(c1ccccc1F)(c1ncc(C(F)(F)F)cc1Cl)N1CCOCC1 (configuration not stated)
active

Recorded test call requested for COC(=O)[C@@]1(Cc2ccc(F)cc2)[C@H]2c3cc(C(=O)N4CCCC4)n(CCc4c[nH]c5ccc(OC)cc45)c3C[C@H]2CN1C(=O)c1ccccc1
active

# outcome recorded in this test, key = COC(=O)[C@@]1(Cc2ccc(OC)cc2)[C@H]2c3cc(C(=O)N4CCCC4)n(CCCNc4ncc(C(F)(F)F)cc4Cl)c3C[C@H]2CN1C(=O)c1ccccc1
active

Record request — test call for CN(C1CCCCC1)S(=O)(=O)c1ccc(NC(=S)NC(=O)c2cccs2)cc1
active

Could you check what this test reported for O=C(CN(Cc1ccco1)C(=O)c1cccc(Cl)c1)Nc1c(Cl)cc(Cl)cc1Cl ?
active

Please let me know the test result on file for CC(=O)NS(=O)(=O)c1ccc(NC(=S)NC(=O)c2ccco2)cc1 .
inactive

Please indicate how the test categorized CC[n+]1c(P(=O)([O-])c2ccccc2)[nH]c2ccccc21 .
inactive

Hi, sorry to bother you, what did the test record for O=C(CSc1c[nH]c2ccccc12)N1CCOCC1 ?
active

Query: recorded result category for O=C(Nc1ccccc1)N1CC2(CCN(C(=O)c3cc(C(F)(F)F)cc(C(F)(F)F)c3)CC2)C1 in this test
inactive

Tell me the assay call for Cc1nn2c(NCC(C)C)c3c(nc2c1-c1ccccc1)CCC3 please.
inactive

Can you look up the reported call for COc1ccc2[nH]cc(CCNc3ncnc4ccc(-c5ccc(C(=O)N(C)C)cc5)cc34)c2c1 for me?
active

// outcome(item) with item = CC1=C(C(=O)O)N2C(=O)C(NC(=O)c3ccn(C)n3)C2SC1 (configuration not stated)
active

# outcome recorded in this test, key = CCN(c1ccccc1)S(=O)(=O)c1ccc(NC(=S)NC(=O)c2cccs2)cc1
active
